Record form. Attribute: % Difference in Efficacy (chelators). Fill in for each entry.
# assay protocol: Simulated wound matrix disruption on 96-peg lid, test solutions (Example 1)
# test settings: 1% w/w solution, 37° C., 1 hour, absorbance at 595 nm; with respect to 1% w/w benzethonium chloride aqueous solution

Hey, can you go through the list below and give me % Difference in Efficacy (chelators) for every item?
1. O=P([O-])(O)O.[Na+] [Sodium Di-hydrogen Phosphate]
2. O=C([O-])CC(O)(CC(=O)[O-])C(=O)[O-].[Na+].[Na+].[Na+] [Tris-odium Citrate]
3. O=C(O)CC(O)(CC(=O)O)C(=O)O
4. O=C([O-])C(=O)[O-].[K+].[K+] [Potassium Oxalate]

(A)
−70%
+1750%
+50%
+1350%
